Origin of measurements: patent US8841301B2

- Assayed Target: hNR2B (Homo sapiens, UniProt Q05586+Q13224)
- Sequence (Q13224 27-1484, other chains not shown): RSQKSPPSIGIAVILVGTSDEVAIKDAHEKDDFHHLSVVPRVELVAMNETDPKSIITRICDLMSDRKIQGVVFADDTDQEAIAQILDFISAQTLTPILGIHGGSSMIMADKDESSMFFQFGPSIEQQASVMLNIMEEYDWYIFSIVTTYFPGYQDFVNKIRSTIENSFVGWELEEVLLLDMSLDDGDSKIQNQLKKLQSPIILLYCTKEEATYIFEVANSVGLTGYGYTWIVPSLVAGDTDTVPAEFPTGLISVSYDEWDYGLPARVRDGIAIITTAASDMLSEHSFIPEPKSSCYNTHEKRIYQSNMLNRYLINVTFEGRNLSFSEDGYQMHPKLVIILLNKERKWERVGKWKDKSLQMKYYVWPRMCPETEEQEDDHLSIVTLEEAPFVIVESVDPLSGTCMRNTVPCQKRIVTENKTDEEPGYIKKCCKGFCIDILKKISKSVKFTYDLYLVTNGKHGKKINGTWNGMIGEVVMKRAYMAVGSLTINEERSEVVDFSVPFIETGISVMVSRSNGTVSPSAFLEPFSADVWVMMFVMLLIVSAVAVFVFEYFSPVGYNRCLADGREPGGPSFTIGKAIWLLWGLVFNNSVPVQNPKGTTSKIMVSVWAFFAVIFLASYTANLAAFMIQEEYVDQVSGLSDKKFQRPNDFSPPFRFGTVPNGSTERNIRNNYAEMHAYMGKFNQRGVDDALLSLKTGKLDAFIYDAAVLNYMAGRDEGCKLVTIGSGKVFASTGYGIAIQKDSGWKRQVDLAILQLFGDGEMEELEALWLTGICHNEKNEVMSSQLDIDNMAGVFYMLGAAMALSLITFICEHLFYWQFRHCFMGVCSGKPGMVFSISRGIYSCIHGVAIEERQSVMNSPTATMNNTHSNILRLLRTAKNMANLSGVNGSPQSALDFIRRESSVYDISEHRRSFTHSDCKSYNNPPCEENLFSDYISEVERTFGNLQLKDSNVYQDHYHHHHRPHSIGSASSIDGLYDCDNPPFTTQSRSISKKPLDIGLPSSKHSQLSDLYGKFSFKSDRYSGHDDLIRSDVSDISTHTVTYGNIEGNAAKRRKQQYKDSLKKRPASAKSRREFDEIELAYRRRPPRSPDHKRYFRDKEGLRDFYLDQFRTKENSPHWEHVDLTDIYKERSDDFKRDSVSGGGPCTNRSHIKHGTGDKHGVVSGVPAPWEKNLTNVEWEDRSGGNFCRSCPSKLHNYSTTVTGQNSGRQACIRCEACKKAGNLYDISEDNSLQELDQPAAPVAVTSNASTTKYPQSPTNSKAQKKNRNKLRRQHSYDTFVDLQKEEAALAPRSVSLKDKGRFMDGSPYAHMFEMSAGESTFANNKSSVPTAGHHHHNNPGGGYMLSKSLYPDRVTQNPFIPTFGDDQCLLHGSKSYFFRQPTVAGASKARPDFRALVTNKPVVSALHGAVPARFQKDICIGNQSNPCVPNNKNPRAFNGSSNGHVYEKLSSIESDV
- Procedure Summary: Electrophysiology NMDA receptor experiments: two electrode voltage-clamp in Xenopus laevis oocytes expressing GluN1/GluN2 subunits
- Type: cell-based
- Condition Set: oocytes voltage clamped at −40 mV; 50 μM glutamate, 30 μM glycine; read-out: Rating (hNR2B IC50)
pIC50: −log10 of the molar value.
Reported values of pIC50 for individual entries
Parameter: pIC50

>>> result("FC(F)Oc1ccc(Nc2ncc(COc3ccc4[nH]ncc4c3Cl)cn2)cc1")
"> 6.70"
>>> result("Fc1cc(Nc2ncc(CCc3cnc4[nH]ncc4c3)cn2)ccc1OC(F)F")
"> 6.70"
>>> result("CC1(C)OC(=O)Nc2ccc(CCc3cnc(Nc4ccc(OC(F)F)c(F)c4)nc3)cc21")
"5.00 to 6.00"
>>> result("O=c1ccc2cc(OCc3ccnc(NCc4ccc(Cl)cc4)n3)ccc2[nH]1")
"5.00 to 6.00"
